Target: wild-type mouse delta opioid receptor (Mus musculus)
Sequence (P32300 whole entry): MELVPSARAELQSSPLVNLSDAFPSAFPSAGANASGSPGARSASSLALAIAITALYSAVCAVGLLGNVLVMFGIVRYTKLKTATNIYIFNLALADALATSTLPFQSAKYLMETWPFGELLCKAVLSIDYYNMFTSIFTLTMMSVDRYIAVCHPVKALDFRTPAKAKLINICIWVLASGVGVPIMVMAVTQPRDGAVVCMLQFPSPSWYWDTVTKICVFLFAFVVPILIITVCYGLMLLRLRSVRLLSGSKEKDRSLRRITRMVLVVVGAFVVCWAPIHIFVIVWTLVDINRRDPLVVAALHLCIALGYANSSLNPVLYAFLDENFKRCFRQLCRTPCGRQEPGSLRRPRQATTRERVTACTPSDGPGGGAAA
Test: Forskolin-stimulated cAMP accumulation, COS-7 cells, wild-type delta receptor
quantity measured: EC50 (nM)
Respond with the bare value in nM.

Provide one value: measured EC50 of CCC12CCN(CC3(O)CC3)C(Cc3ccc(O)cc31)C2(C)C (racemic) [Bremazocine] 7.4

---

Biological target: cloned human μ opioid receptor (Homo sapiens, UniProt P35372)
Construct: This fragment includes the entire coding region of the human μ opioid receptor; expressed in transfected cells; host or cells: COS-7 (transient, pcDNA3)
Sequence (P35372 whole entry, the tested form may be a part): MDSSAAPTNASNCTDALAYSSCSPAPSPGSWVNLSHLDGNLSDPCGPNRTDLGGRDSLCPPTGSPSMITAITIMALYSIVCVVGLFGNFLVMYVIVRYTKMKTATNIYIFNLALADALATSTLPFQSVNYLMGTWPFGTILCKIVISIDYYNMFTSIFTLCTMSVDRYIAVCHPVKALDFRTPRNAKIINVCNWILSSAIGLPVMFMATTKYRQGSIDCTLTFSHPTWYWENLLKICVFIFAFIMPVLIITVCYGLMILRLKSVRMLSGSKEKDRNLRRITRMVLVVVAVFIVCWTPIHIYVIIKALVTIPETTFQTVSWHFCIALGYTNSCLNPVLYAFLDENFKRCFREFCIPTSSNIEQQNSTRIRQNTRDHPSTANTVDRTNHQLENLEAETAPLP
Assay type: binding
Details: read-out: Binding potencies (Ki-nM) for the cloned human μ opioid receptor [^3H] DAMGO
quantity measured: Ki (nM)
Respond with the bare value in nM.

Provide one value: measured Ki of COC(=O)/C=C/C(=O)N[C@@H]1CC[C@@]2(O)[C@H]3Cc4ccc(O)c5c4[C@@]2(CCN3CC2CC2)[C@H]1O5 0.29
